Entries annotated with measured GI50
# Tested on: LOX IMVI
# assay.details: NCI tumour cell line growth inhibition, 48 h
Activity calls are given as the source filed them. No stated cut-off is given here; in the data, active = GI50 up to about 1.1 µM and inactive = higher.
assay.metric: GI50

In [3]: df
Out[3]:
                                   compound      endpoint_value
0   CC#CCCCC1(C)CCNC1=S (centres undefined)  > 10 µM (inactive)
1  CCn1c(SCC(=O)N/N=C/c2ccccc2)nc2ccccc2c1=O  6.68 µM (inactive)
2  CN(C)CCC1(C2=CCCC2)CC/C(=C\c2ccccc2)C1=O (centres undefined)  17.1 µM (inactive)
3  O=S(=O)(N/C(=N\O)Nc1ccc(Cl)cc1)c1cc2ccccc2s1  17.5 µM (inactive)
